Record form. Attribute: glycan array binding signal (z-score). Fill in for each entry.
# Test system: Neu5Gc(a2-3)Gal(b1-3)[Fuc(a1-4)]GlcNAc
# Procedure details: glycan array binding signal (z-score within array); higher = stronger binding
# Measurement parameters: glycan notation: IUPAC condensed, linker removed
Shown is part of a subset that was picked to be rich in the strongest signals.
Numbers only.

Below, each entry is followed by its recorded glycan array binding signal (z-score) result.
PEB1 (Campylobacter jejuni), Q0P9X8 (protein) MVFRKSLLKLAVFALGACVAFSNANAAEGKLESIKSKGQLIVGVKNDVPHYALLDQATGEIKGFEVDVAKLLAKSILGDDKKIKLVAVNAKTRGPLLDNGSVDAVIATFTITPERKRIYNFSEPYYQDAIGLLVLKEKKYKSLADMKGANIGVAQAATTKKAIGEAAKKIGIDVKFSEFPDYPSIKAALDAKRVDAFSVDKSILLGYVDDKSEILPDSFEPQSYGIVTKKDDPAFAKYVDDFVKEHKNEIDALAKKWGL : -0.646
Gz-CVNH (Gibberella zeae) (protein) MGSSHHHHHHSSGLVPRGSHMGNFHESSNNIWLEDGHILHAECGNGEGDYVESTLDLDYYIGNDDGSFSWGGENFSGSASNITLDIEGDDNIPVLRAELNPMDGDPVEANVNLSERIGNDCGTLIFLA : -0.134

Consider the record given below.
Determine its reported glycan array binding signal (z-score): RBMC1 (Vibrio cholerae) (protein) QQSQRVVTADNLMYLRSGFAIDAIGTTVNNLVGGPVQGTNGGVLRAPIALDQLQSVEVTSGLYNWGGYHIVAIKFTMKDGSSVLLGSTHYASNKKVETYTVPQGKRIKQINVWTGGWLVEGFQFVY
-0.039
